Tested on: HEK-293T
measurement.notes: Multiplex assay against HEK293T
Assay type: toxicity, cell-based
settings: human, 12 h, 10 µM, compound concentration 10 uM, replicate 2
Exercise: state measured Population Fragmented Nuclei (%) for each of the compounds provided.
Field format: number, assumed %, no unit text.

Item under review: CNC(=O)c1cc(Oc2ccc(NC(=O)Nc3cc(C(C)(C)C)nn3-c3ccc4ncccc4c3)c(F)c2)ccn1 . Reported Population Fragmented Nuclei (%)?
3

I would be grateful if you could share the reported Population Fragmented Nuclei (%) for c1ccc2oc(-c3csc(C4CCN(Cc5nc6ncccc6[nH]5)CC4)n3)cc2c1 .
6

Param item = Nc1ccc(C(=O)Nc2cccc(-c3nc(N4CCOCC4)c4oc5ncccc5c4n3)c2)cn1 ; retrieve measured Population Fragmented Nuclei (%).
15

Sample Cc1cn(-c2cc(NC(=O)c3ccc4c(c3)CN(c3cncnc3)C[C@@H]4C)cc(C(F)(F)F)c2)cn1 — what was its Population Fragmented Nuclei (%)?
5

* * *

Test system: HEK-293T
measurement.notes: Incucyte cell viability with HEK293T; further: filed as whole numbers so only -1 and 0 and 1 occur
Type: toxicity, cell-based
settings: human, 6 h, 10 µM, compound concentration 10 uM, replicate number 1, timepoint 6 hours
parameter.measured: Growth Rate
Hey, just send me the number, nothing else.

Given the molecule CCCn1c(=O)c2[nH]c(C34CC5CC(CC3C5)C4)nc2n(CCC)c1=O , what is its reported Growth Rate?
0

Fill in the blank: the reported Growth Rate of CCc1cc2c(c(CC)n1)CCC(=O)N2Cc1ccc(-c2ccccc2-c2nnn[nH]2)cc1.Cl is ____.
1

Consider the molecule CO[C@H]1/C=C/O[C@@]2(C)Oc3c(C)c(O)c4c(O)c(c(/C=N/N5CCN(C)CC5)c(O)c4c3C2=O)NC(=O)/C(C)=C\C=C\[C@H](C)[C@H](O)[C@@H](C)[C@@H](O)[C@@H](C)[C@H](OC(C)=O)[C@@H]1C and give its measured Growth Rate.
1

Fill blank: measured Growth Rate of the molecule CCCCN(CCCC)C(=O)CN1C[C@@H](c2cc(OC)c3c(c2)OCO3)[C@H](C(=O)O)[C@H]1CC(C)(C)CCC is ____.
0

Quick one: Growth Rate for N#Cc1ccccc1OCC(O)CNCCNC(=O)Nc1ccccc1 (stereo unspecified) ?
0

Requested read-out: Growth Rate. Entry: Nc1nc(NCc2ccccc2)nc(-c2cccc(CO)c2)n1
0

Data request, read-out Growth Rate, for CC(C)N1CCC(C)(C)c2cc(C#Cc3ccc(C(=O)O)cc3)ccc21
1

Fill in: Growth Rate of O=C(NCc1ccc(F)cc1)C1CCN(S(=O)(=O)c2cc(Cl)cc(Cl)c2)CC1 is ___
1

Look at this molecule and give its reported Growth Rate. O=C(O)c1ccc2cc(-c3ccc(O)c(C45CC6CC(CC(C6)C4)C5)c3)ccc2c1
0

Fill in: Growth Rate of COc1cc2c(cc1-c1c(C)noc1C)ncc1[nH]c(=O)n([C@H](C)c3ccccn3)c12 is ___
0

Field request: Growth Rate | item: Cl.Cl.NC1(c2ccc(-c3nc4ccn5c(=O)[nH]nc5c4cc3-c3ccccc3)cc2)CCC1
0

Query: Growth Rate; subject: CC(C)Oc1ccc(-c2nn([C@@H](C)c3oc4ccc(F)cc4c(=O)c3-c3cccc(F)c3)c3ncnc(N)c23)cc1F
0

Quick one: Growth Rate for CO[C@@H]1COCC[C@@H]1N[C@@H]1CC[C@@](C(=O)N2CCc3ncc(C(F)(F)F)cc3C2)(C(C)C)C1 ?
1

Quick check: Growth Rate of CCC1(C2=NCCN2)Cc2ccccc2O1 (stereo unspecified) ?
1

Return reported Growth Rate; argument: C[C@H]1CCCN1Cc1nc2cc(NC(=O)c3ccc4cnccc4c3)ccc2[nH]1
0

What value of measured Growth Rate is listed for CCN1CCN(Cc2ccc(NC(=O)c3ccc(C)c(Oc4ccnc5[nH]ccc45)c3)cc2C(F)(F)F)CC1.Cl.Cl.Cl.O ?
0
